- Tested on: MPP-89 (Mesothelioma)
- assay: combination Emax (second highest fraction inhibited in the dose matrix, 72 h); higher = more inhibition; extreme values may be limits of the assay
Items are presented alongside their recorded combination Emax.
measure: combination Emax

N#Cc1cnc(Nc2cc(NC[C@H]3CNCCO3)c(C(F)(F)F)cn2)cn1 [SRA737] + Nc1ccn([C@@H]2O[C@H](CO)[C@@H](O)C2(F)F)c(=O)n1 [Gemcitabine] (first compound max 10 µM, 7x7, partner max 0.3 µM): 0.656
COc1nnc2ccc(N3CCC(c4ccc(OCCN5CCN(C)C(=O)[C@H]5C)cc4)CC3)nn12 [AZD5153] + CCN(CCO)CCCOc1ccc2c(Nc3cc(CC(=O)Nc4cccc(F)c4)[nH]n3)ncnc2c1 [AZD2811] (first compound max 1 µM, 7x7, partner max 1 µM): 0.467
